Hey, just so you know, these numbers are from ChEMBL document CHEMBL4373747.

- Assay Text: Efflux ratio of apparent permeability in human Caco2 cells incubated for 2 hrs by LC/MS analysis
- Type: ADME, cell-based, Caco-2
- Reported Conditions: Caco-2
Readout Type: efflux ratio at 2 h
Give bare numbers.

| Molecule | Result |
| --- | --- |
| CC(C)(C)c1ccc(C(=O)Nc2ccc(C(=O)NO)cc2)cc1 | 0.64 |

# per-item lookup of efflux ratio at 2 h; items listed below
1. COCCc1ccc(OCC(O)CNC(C)C)cc1 (stereo not drawn)
2. C[C@H]1O[C@@H](O[C@H]2[C@@H](O)C[C@H](O[C@H]3[C@@H](O)C[C@H](O[C@H]4CC[C@@]5(C)[C@H](CC[C@@H]6[C@@H]5C[C@@H](O)[C@]5(C)[C@@H](C7=CC(=O)OC7)CC[C@]65O)C4)O[C@@H]3C)O[C@@H]2C)C[C@H](O)[C@@H]1O

A.
1. 1
2. 73

* * *

- System Name: Histone deacetylase 7 (Homo sapiens, UniProt Q8WUI4)
- Sequence (Q8WUI4 whole entry): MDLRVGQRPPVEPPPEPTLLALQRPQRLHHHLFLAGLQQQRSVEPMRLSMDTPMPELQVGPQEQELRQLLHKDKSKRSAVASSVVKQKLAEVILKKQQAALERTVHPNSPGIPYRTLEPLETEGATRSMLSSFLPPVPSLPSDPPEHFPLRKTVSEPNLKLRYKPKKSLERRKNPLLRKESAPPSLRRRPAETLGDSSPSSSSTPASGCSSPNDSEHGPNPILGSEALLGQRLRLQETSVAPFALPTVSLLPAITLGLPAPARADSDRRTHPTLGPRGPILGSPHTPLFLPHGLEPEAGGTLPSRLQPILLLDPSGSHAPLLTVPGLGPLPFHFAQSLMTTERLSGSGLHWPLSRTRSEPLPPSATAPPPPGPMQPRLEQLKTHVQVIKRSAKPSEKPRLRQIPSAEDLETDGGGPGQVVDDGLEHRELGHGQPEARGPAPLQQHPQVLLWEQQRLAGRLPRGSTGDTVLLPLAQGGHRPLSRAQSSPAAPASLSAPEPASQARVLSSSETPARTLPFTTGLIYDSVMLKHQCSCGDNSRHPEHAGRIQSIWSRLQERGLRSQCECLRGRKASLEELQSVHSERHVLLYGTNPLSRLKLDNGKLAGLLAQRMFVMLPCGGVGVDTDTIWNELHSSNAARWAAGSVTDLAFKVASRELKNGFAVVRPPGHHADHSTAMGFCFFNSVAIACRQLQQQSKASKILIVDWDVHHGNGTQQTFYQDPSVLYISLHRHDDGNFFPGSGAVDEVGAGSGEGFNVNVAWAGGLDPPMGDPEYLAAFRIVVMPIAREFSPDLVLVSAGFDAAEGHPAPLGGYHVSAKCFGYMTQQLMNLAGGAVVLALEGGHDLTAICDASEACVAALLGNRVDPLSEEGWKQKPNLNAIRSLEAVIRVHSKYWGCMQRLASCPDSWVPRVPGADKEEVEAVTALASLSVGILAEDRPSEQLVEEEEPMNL
- Assay Text: Inhibition of recombinant full length human HDAC7 expressed in baculovirus infected Sf9 cells using FAM-RHKK-TFAc as substrate incubated for 3 hrs by electrophoretic mobility shift assay
Readout Type: IC50

Q. So what does the record say about IC50 for CC(C)(C)c1ccc(C(=O)Nc2ccc(C(=O)NO)cc2)cc1 ?
A. > 1 µM

* * *

- Assay Text: Apparent permeability from apical to basolateral side in human Caco2 cells incubated for 2 hrs by LC/MS analysis
- Format: ADME, cell-based, Caco-2
- Reported Conditions: Caco-2
Readout Type: Papp A→B at 2 h

Q. For the molecule CC(C)(C)c1ccc(C(=O)Nc2ccc(C(=O)NO)cc2)cc1 , what Papp A→B at 2 h is on record?
A. 3.45 ×10⁻⁶ cm/s

* * *

Exercise: for every item that follows, state its recorded pKi.
- System Name: Protein deacetylase HDAC6 (Homo sapiens, UniProt Q9UBN7)
- Assay Text: Inhibition of recombinant full length human HDAC6 expressed in baculovirus infected Sf9 cells assessed as inhibitory constant using FAM-RHKK-Ac as substrate incubated for 5 hrs by electrophoretic mobility shift assay
One number for each entry, as −log10 of the molar value.

A selection of reference data follows.
| Chemical Structure | pKi |
| --- | --- |
| CC(C)(C)OC(=O)N(Cc1ccc(C(C)(C)C)cc1)c1ccc(C(=O)NO)cc1 | 6.70 |
| CC(C)(C)c1ccc(CN(C(=O)CN(Cc2c(F)c(F)c(F)c(F)c2F)S(C)(=O)=O)c2ccc(C(=O)NO)cc2)cc1 | 5.96 |

Q. Would you mind telling me what pKi value was observed for CC(=O)N(Cc1ccc(C(C)(C)C)cc1)c1ccc(C(=O)NO)cc1 ?
A. 6.70

* * *

- Assay Text: Half life in NSG mouse
- Assay type: ADME
- Reported Conditions: in vivo
Readout Type: half-life (h)
Answers are plain numbers, in h.

Q. Which half-life reading was recorded for the molecule CC(C)(C)c1ccc(C(=O)Nc2ccc(C(=O)NO)cc2)cc1 ?
A. 5

* * *

- System Name: Protein deacetylase HDAC6 (Homo sapiens, UniProt Q9UBN7)
- Sequence (Q9UBN7 whole entry): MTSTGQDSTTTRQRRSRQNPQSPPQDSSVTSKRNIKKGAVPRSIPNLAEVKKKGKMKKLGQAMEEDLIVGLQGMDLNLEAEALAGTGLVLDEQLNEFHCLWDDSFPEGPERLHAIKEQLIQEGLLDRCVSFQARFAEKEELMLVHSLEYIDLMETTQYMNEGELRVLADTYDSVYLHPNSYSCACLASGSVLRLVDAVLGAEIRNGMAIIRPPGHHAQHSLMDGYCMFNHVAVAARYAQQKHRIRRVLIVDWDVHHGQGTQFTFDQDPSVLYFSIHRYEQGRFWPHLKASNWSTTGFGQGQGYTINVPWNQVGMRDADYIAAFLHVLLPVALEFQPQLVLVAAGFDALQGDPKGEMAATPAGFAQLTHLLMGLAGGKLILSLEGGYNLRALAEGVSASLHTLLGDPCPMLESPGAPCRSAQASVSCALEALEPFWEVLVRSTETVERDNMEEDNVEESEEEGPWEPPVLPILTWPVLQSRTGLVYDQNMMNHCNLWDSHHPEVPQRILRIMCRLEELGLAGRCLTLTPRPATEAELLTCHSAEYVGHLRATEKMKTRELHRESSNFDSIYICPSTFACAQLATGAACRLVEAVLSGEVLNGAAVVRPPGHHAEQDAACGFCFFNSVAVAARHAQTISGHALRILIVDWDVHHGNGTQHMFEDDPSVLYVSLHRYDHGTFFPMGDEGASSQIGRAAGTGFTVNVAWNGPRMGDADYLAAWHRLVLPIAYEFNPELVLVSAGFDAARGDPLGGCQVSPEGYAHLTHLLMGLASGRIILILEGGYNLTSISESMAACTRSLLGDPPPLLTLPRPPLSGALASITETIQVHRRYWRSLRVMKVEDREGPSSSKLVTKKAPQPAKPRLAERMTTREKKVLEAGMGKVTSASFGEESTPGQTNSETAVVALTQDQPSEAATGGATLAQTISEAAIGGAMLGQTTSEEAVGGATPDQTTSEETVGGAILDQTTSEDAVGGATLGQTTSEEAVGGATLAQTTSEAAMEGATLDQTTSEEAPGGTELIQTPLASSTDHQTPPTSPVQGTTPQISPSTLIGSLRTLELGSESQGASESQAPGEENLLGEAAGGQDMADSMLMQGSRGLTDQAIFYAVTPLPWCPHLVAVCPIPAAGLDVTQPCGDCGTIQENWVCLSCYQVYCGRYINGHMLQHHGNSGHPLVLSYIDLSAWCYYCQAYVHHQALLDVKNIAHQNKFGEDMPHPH
- Assay Text: Inhibition of recombinant full length human HDAC6 expressed in baculovirus infected Sf9 cells assessed as inhibitory constant using FAM-RHKK-Ac as substrate incubated for 5 hrs by electrophoretic mobility shift assay
pKi: −log10 of the molar value.
Use 6 as the dividing line for pKi, with the line itself on the TRUE side and lower values as FALSE.

Some entries whose results are on file:
| Chemical Structure | Assigned Label |
| --- | --- |
| CN(C(=O)CN(Cc1c(F)c(F)c(F)c(F)c1F)S(=O)(=O)c1ccc(F)cc1)c1ccc(C(=O)NO)cc1 | TRUE |
| CC(C)(C)c1ccc(CN(C(=O)CNS(=O)(=O)c2ccc(F)cc2)c2ccc(C(=O)NO)cc2)cc1 | TRUE |
| CC(C)(C)c1ccc(C(=O)Nc2ccc(C(=O)NO)cc2)cc1 | TRUE |
| CC(C)(C)c1ccc(CNc2ccc(C(=O)NO)cc2)cc1 | TRUE |
| O=C(NO)c1ccc(N(Cc2ccccc2)C(=O)CN(Cc2c(F)c(F)c(F)c(F)c2F)S(=O)(=O)c2ccc(F)cc2)cc1 | FALSE |

Q. Entry CC(C)(C)c1ccc(CN(C(=O)CN(Cc2c(F)c(F)c(F)c(F)c2F)S(=O)(=O)c2ccc(F)cc2)c2ccc(C(=O)NO)cc2)cc1 : is its pKi no less than 6?
A. FALSE

* * *

- System Name: Histone deacetylase 9 (Homo sapiens, UniProt Q9UKV0)
- Sequence (Q9UKV0 whole entry, the tested form may be a part): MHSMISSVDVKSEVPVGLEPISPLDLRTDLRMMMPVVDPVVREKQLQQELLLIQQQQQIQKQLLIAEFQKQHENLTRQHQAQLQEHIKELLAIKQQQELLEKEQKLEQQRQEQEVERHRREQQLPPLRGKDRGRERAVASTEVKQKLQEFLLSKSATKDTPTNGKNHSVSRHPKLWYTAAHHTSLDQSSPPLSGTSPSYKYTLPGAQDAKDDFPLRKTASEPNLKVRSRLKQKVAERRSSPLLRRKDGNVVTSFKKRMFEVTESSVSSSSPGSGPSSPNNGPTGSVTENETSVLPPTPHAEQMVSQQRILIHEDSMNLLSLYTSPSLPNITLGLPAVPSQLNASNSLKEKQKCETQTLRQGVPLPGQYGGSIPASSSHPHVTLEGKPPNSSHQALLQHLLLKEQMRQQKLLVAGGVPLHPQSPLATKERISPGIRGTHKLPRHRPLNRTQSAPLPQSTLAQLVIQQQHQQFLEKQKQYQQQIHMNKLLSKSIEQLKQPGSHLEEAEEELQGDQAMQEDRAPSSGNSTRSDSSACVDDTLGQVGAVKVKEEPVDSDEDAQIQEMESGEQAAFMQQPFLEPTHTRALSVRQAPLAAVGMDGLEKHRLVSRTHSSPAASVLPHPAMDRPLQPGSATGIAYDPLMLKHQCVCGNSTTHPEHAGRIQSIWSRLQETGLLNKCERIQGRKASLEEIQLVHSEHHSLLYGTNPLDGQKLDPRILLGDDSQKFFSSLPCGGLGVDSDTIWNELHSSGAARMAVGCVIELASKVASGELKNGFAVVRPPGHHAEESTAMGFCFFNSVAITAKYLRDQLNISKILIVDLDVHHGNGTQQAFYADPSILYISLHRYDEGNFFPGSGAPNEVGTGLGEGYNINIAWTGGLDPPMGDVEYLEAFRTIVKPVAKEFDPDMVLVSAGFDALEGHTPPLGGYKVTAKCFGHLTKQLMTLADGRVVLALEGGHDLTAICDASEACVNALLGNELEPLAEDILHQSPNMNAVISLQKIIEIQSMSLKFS
- Assay Text: Inhibition of recombinant human HDAC9 (604-1066 residues) expressed in baculovirus infected Sf9 cells using FAM-RHKK-TFAc as substrate incubated for 3 hrs by electrophoretic mobility shift assay
Readout Type: pIC50
Give bare numbers, as −log10 of the molar value.

Q. Given Cn1cc(CNCC2CCN(c3ncc(C(=O)NO)cn3)CC2)c2ccccc21 [QUISINOSTAT] , state its recorded pIC50.
A. 8.17

* * *

Field: IC50. Provide a value for each of the compounds that follow.
- Test system: MDA-MB-231
- Assay Text: Cytotoxicity against human MDA-MB-231 cells assessed as reduction in cell viability incubated for 72 hrs by cell-titer blue assay
- Type: functional, cell-based
- Reported Conditions: MDA-MB-231, 72 h

Record excerpt, results attached:
| Chemical Structure | IC50 |
| --- | --- |
| CN(CC(=O)N(Cc1ccc(C(C)(C)C)cc1)c1ccc(C(=O)NO)cc1)S(=O)(=O)c1ccc(F)cc1 | > 25 µM |
| CC(C)(C)c1ccc(CN(C(=O)CN(Cc2c(F)c(F)c(F)c(F)c2F)S(C)(=O)=O)c2ccc(C(=O)NO)cc2)cc1 | > 12.5 µM |
| CC(C)(C)c1ccc(CNc2ccc(C(=O)NO)cc2)cc1 | > 25 µM |
| CC(C)(C)c1ccc(C(=O)Nc2ccc(C(=O)NO)cc2)cc1 | > 25 µM |
| CC(=O)N(Cc1ccc(C(C)(C)C)cc1)c1ccc(C(=O)NO)cc1 | > 25 µM |
| CN(C(=O)CN(Cc1c(F)c(F)c(F)c(F)c1F)S(=O)(=O)c1ccc(F)cc1)c1ccc(C(=O)NO)cc1 | > 25 µM |
| CC(C)(C)c1ccc(CN(C(=O)CN(Cc2c(F)c(F)c(F)c(F)c2F)S(=O)(=O)c2ccc(F)cc2)c2ccc(C(=O)NO)cc2)cc1 | 2.62 µM |

Switching to the query record.
Q. I am curious: what IC50 value has been reported for CC(C)(C)OC(=O)N(Cc1ccc(C(C)(C)C)cc1)c1ccc(C(=O)NO)cc1 ?
A. > 25 µM
